- Procedure summary: doxorubicin toxicity protection in MRP-1 cells – H69AR cells, CellTiter-Glo, duplicate, MRP-1 activator project, pilot screen (AID 807);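 note: compound pretreatment 18-22 h then 72 h combined with doxorubicin; 0% = doxorubicin alone and 100% = vehicle without doxorubicin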
- Conditions: H69AR viability with doxorubicin, CellTiter-Glo luminescence; at 10 µM; stronger effect = higher value
Property measured: viability increase (%)
One number for each entry, in %.

C=CCn1c(SC(C)C(=O)NC2(C#N)CCCCC2)nnc1-c1ccc(OC)cc1 (configuration not stated) | -2.25
CCNc1nnc(-c2ccccc2OC)s1 | -0.41
COC(=O)CCC(=O)Nc1ccc(Br)cc1 | -1.52
CC1(C)CC(=O)N(CC(=O)NCc2ccccc2)c2ccccc2S1(=O)=O | -1.93

// for each compound in input: emit viability increase
1. O=C(NCCCN1CCOCC1)c1ccco1
2. CCOC(=O)c1c(C)[nH]c(C(=O)COc2ccc3c(c2)OCO3)c1C
3. CC(=O)Nc1nnc(SCC(=O)NCCOc2ccccc2)s1
4. O=C(c1cnccn1)N(c1ccccc1)C1(C(=O)NC2CCCC2)CCCCC1
5. CCOC(=O)C(CC)(CCC(=O)O)c1csc(N)n1 (configuration not stated)
6. COc1ccccc1CNC(=O)CCn1c(=O)[nH]c2ccsc2c1=O

Return:
[-0.94, -2.79, -0.85, -1.49, -1.31, -0.23]

// for each compound in input: emit viability increase
1. Cc1cc(C)nc(/N=C2\NC(=O)CC(C(=O)O)N2c2ccc(Cl)cc2)n1 (configuration not stated)
2. O=C1CC(c2ccccc2)CC(O)=C1C=NCCN1CCOCC1 (configuration not stated)
3. O=C(OCn1nnc2ccccc2c1=O)c1cc2ccccc2o1
4. CCCCCOc1ccc(C2NC(=O)NC2=O)cc1 (configuration not stated)
5. O=C1CCC(=O)N1c1ccc(CSc2nnnn2C2CCCCC2)cc1
6. CNC(=O)CN(c1ccc(C(C)C)cc1)S(C)(=O)=O

Return:
1.08
0.42
1.18
-1.63
0.3
0.08

// for each compound in input: emit viability increase
1. Cc1cc(N2CCCC2)n2nc(C)nc2n1
2. CN1C(=O)CSc2ccc(C(=O)O)cc21
3. COc1ccc(NC(=O)CC2Sc3ncnn3C2=O)cc1 (configuration not stated)

Return:
1. -0.52
2. -0.35
3. -3.8

---

Give measured viability for each item. Keep answers brief.
- Procedure summary: H69AR cell proliferation blockers – human, duplicate replicates, primary screen (AID 580);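 note: 100% = mean luminescence of untreated wells and 0% = no signal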
- Conditions: H69AR lung tumor cells viability, ATP luminescence, 72 h; at 10 µM; stronger effect = lower value
Numbers only, in %.

// for each compound in input: emit viability
1. c1ccc(CN2CCN(CCCNc3ccc4nnc(-c5ccccc5)n4n3)CC2)cc1
2. Nc1nc2n(n1)C(c1cccc(Br)c1)CC(c1ccc(F)cc1)N2 (stereo not drawn)
3. CN1CCN(C2=C(Cl)C(=O)N(c3cccc(Cl)c3)C2=O)CC1
4. COc1ccccc1-c1cc2nc(C)c(CCC(=O)NCc3ccco3)c(C)n2n1
5. COc1ccc(CNC(=O)c2nnn(Cc3ccc(OC)cc3)c2N)cc1

Return:
1: 86.3; 2: 111; 3: 85; 4: 89.9; 5: 86.5

---

Give measured viability for each item. Keep answers brief.
- Procedure summary: MRP1 drug-resistance reversers in H69AR cells – cell-based, doxorubicin co-treatment, pilot screen (AID 601)
- Conditions: H69AR cells, CellTiter-Glo, 72 h; compound alone cytotoxicity; at 10 µM
One number for each entry, in %.

Check out these entries, answers already filled in.
CCCNC(=O)CS(=O)(=O)Cc1nc(-c2cccc(OC)c2)oc1C | 87.7
COC(=O)CN(c1ccc(OC)cc1)S(=O)(=O)c1ccc(OC)c(OC)c1 | 88.1
CCN1CCN(CCCNC(=O)c2cc3sccc3n2CC)CC1 | 89.4

Proceed to the following item.
The reported viability of the compound `COc1ccc(N2Cc3ccccc3C2)cc1Cl` was 89.9

---

- Procedure summary: growth suppression of yeast trafficking mutant, preliminary HTS, modulators of trafficking downstream of Golgi apparatus project, 1536-format plate, OD 615 nm (AID 637)
- Conditions: yeast transport mutant growth, absorbance 615 nm, 18 h; stronger effect = higher value
Give measured inhibition for each item. Keep answers brief.
Give bare numbers, in %.

CCCN1CCN(CCCNC(=O)Cn2ncc3c4ccccc4n(C)c3c2=O)CC1 | 5.17
CCCCSc1nc2c(cnn2-c2ccc(F)cc2)c(=O)[nH]1 | 0.5
Cc1ccc2oc(=O)c3cnn(CC(=O)NCCC(C)C)c3c2c1 | -1.67
CCN(CC)C(=O)Oc1ccc(NC(C)=O)cc1 | -6.33
CCOC(=O)N1CCC(NC(=O)C2CCCN(C(=O)c3cc4sccc4n3C)C2)CC1 (stereo not drawn) | -0.83
CCOc1ccc(NC(=O)C(C)Sc2nnc(C)n2C)cc1 (stereo not drawn) | -1.17
COc1cc(NC(=O)c2nccnc2C(=O)O)cc(OC)c1 | -2.3
O=C1CCCCCC1C1(O)C(=O)Nc2ccccc21 (stereo not drawn) | -1.67

// for each molecule in input: emit inhibition
1. CCOc1ccc(Cn2nnc(C(=O)Nc3cc(C)cc(C)c3)c2N)cc1
2. CCn1cc(SCC(=O)Nc2cc(C)on2)c2ccccc21
3. CC1(C(=O)NC2CCCCC2)CCC(=O)N1Cc1cccs1 (stereo not drawn)
4. O=C(Cn1c(=O)[nH]c2ccsc2c1=O)NC1CCCCCC1
5. Cc1cc2ncn(C(=O)N3CCOCC3)c2cc1C
6. CC(NC(=O)c1noc2c1CCCCC2)c1ccccc1 (stereo not drawn)
7. CC(=O)c1ccc(OCC(O)CN2CCN(Cc3ccc4c(c3)OCO4)CC2)cc1 (stereo not drawn)

Return:
1. -3.28
2. -1.15
3. 8.83
4. 2.17
5. -6.03
6. -2
7. 2.5

// for each molecule in input: emit inhibition
1. CNC(=O)c1ccsc1NC(=O)c1ccccc1
2. CCCOc1ccc(C2C(C(=O)OC)=CN(CCOC)C=C2C(=O)OC)cc1
3. CCOC(=O)N1CCC(NC(=O)c2cc(C(=O)NC3CCCC3)ccc2CO)CC1
4. CCOc1cccc(-c2nnc3n2N=C(c2cc(OC)ccc2OC)CS3)c1
5. Cc1cc(C)c(C(=O)Nc2ccc(S(=O)(=O)Nc3onc(C)c3C)cc2)c(C)c1
6. O=C(Nc1cccc2ccccc12)c1ccc(Br)o1

Return:
1: -3.5; 2: 3.11; 3: 6; 4: 1.75; 5: -1.48; 6: -0.17

// for each molecule in input: emit inhibition
1. COCCCNC(=O)Cn1cc2c(n1)CCC(C)C2 (stereo not drawn)
2. CSC1=N/C(=C\C=C\c2cccs2)C(=O)S1
3. COCCCN1C(=O)C(=O)/C(=C(/O)c2ccc(OCC(C)C)cc2C)C1c1cccnc1 (stereo not drawn)
4. C(=N\n1cnnc1)/c1cccc(OCCOc2ccccc2)c1
5. CCOC(=O)c1ccc(N2Cc3cc(C)c(C)cc3C2)cc1O
6. COc1cccc(NC(=O)CSc2nnc(Cc3cccn3C)n2-c2ccc(F)cc2)c1
7. COc1ccc(NC(=O)CSc2nc3c(c(=O)n2-c2ccccc2OC)SCC3)cc1
8. CCOC(=O)c1sc(NC(=O)c2noc3c2CCCC3)c(C(=O)OCC)c1C

Return:
1: 0.17; 2: -6.17; 3: -2.67; 4: 2; 5: 10.3; 6: -8; 7: -5.5; 8: -4.17

// for each molecule in input: emit inhibition
1. CCOC(=O)N1CCC(c2cc(=O)n3[nH]cc(C(=O)OC)c3n2)CC1
2. Cc1nc2ccc(S(=O)(=O)NC(C(=O)N3CCCC3)C(C)C)cc2s1 (stereo not drawn)
3. COCCNC(=O)c1cc(-c2cccs2)on1
4. CN1CCN(CC(=O)N2c3ccccc3C(C)(c3ccccc3)CC2(C)C)CC1 (stereo not drawn)
5. CCC(C)C(NC(=O)C1CCC(C)CC1)C(=O)NCc1cccnc1 (stereo not drawn)
6. CN(C)CCCNC(=O)CCC1CCCCC1

Return:
1. 0.83
2. -0.5
3. -4.17
4. 2
5. 3.17
6. 1.17

---

Give measured RAM network inhibition for each item. Keep answers brief.
- Procedure summary: RAM signaling pathway blockade in yeast – S. cerevisiae, Pdr1DBD-CYC8 efflux-inhibited sensitized strain, primary screen (AID 1298);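 note: 0% = DMSO untreated cells without growth and 100% = 10 µM 1-NA-PP1 full growth; higher means more yeast growth rescued from 5-FOA killing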
- Conditions: S. cerevisiae cbk1-as DSE1-URA3 strain, 5-FOA growth OD615, 2 d; at 50 µM; stronger effect = higher value
Answers are plain numbers, in %.

Check out these entries, answers already filled in.
CCN(CC)C(=O)CCCOc1ccc(Cl)cc1Cl | 0.45
Cc1cccc(N2C(=O)CC(N3CCN(c4cccc(C(F)(F)F)c4)CC3)C2=O)c1 (centres undefined) | 5.57
Cc1ccc(OC(=O)CCC(=O)Nc2ccc(S(=O)(=O)Nc3cc(C)on3)cc2)cc1 | 3.97

The reported RAM network inhibition of the compound `Cc1noc(C)c1S(=O)(=O)N1CCC(C(=O)N2CCC(N3CCCCC3)CC2)CC1` was -0.93
